# study.target: BACE (Homo sapiens)
# Sequence (P56817 46-460 limits assumed): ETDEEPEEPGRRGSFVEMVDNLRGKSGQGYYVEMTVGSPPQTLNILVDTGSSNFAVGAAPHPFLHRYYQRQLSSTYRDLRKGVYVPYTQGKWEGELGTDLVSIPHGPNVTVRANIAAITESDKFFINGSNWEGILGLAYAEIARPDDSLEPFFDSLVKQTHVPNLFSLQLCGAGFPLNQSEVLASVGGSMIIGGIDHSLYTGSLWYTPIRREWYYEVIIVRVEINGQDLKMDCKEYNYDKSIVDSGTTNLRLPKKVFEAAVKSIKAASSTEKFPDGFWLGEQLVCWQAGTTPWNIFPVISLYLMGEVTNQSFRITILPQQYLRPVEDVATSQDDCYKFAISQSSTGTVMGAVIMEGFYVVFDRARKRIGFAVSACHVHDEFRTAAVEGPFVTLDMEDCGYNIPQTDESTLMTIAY
# procedure.details: Isothermal titration calorimetry (ITC) of BACE and peptides
# Assay type: binding
# Design: The cDNA for the catalytic domain of human BACE (residues 1-460) was PCR-amplified; human IgG1 heavy chain (C, cleaved yes); thrombin cleavage site (C); made in house; host or cells: CHO DG44 cells (stably transfected, secreted)
# condition.summary: 25° C., Dulbecco's PBS, pH 7.0
# Method: Isothermal titration calorimetry was performed to determine quantitatively the binding affinities of BMS-561877 and BMS-561871 for β-secretase. Recombinant human BACE was expressed as a fusion protein with human IgG1, in Chinese hamster ovary (CHO) cells (Vassar et al., (1999) Science 286:735-741 and Haniu et al., (2000) J. Biol. Chem. 275:21099-21106). This construct, referred to as BACE-T-IgG, also contained a protease cleavage site between BACE and IgG1, sensitive to human α-thrombin. […]
reported.metric: Kd

Give me measured Kd, please, for this substance: Ac-HWPFFIRS-NH2 [BMS-655507]
914 nM
